Target: protein-protein interaction between Kras and SOS1 (biotin-tagged human Kras loaded with GDP, His-tagged human SOS1) (Homo sapiens (Human), UniProt P01116, G12D)
Assay: Protein-protein interaction inhibition between Kras and SOS1 (KrasG12D-SOS PPI) using AlphaScreen;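 further: kras produced in E. coli, Ni-coupled donor beads and streptavidin acceptor beads, excitation 680 nm with emission detected at 520–620 nm via singlet oxygen transfer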
Assay type: biochemical
Details: AlphaScreen; biotin-tagged human Kras loaded with GDP, His-tagged human SOS1; read-out: KRAS G12D-SOS PPI IC50
Numbered stars: 1 amine (or outer) side, 2 acyl side, 3 side chain; on linkers, the order of the positions; unused ones are H or OH. Bridge positions count the residues as written; N and C are the ends. Square brackets hold non-standard residues; d marks the D form. Peptide text beside a SMILES is read from it. * marks the point of attachment. hPhe(3-Cl-4-CF3) = N[C@@H](CCc1ccc(C(F)(F)F)c(Cl)c1)C(=O)O; hPhe(3-F,4-CF3) = N[C@@H](CCc1ccc(C(F)(F)F)c(F)c1)C(=O)O; X8 = CC(C)Oc1cc(CC[C@H](N[*:1])C(=O)[*:2])cc(Cl)c1Cl; X20 = Cc1cncc(C[C@@H](C(=O)[*:2])N(C)[*:1])c1; NMeGly(cPent) = CN[C@H](C(=O)O)C1CCCC1; dβ3hPip = O=C(C[C@H]1CCCCN1[*:1])[*:2]; NMeCha = CN[C@@H](CC1CCCCC1)C(=O)O; X81 = O=C(CN(CCOCC(F)F)[*:1])[*:2]; NEtLeu = CCN[C@@H](CC(C)C)C(=O)O; NMeChg = CN[C@H](C(=O)O)C1CCCCC1; NMeD = CN[C@@H](CC(=O)O)C(=O)O; NMeL = CN[C@@H](CC(C)C)C(=O)O; NMeNle = CCCC[C@H](NC)C(=O)O; NMeV = CN[C@H](C(=O)O)C(C)C; d(β3hA) = C[C@@H](N)CC(=O)O; Azetidin(1-yl) = C1CN(*)C1; NMeAbu = CC[C@H](NC)C(=O)O; Morpholide = C1CN(*)CCO1; NMeA = CN[C@@H](C)C(=O)O; NMeAib = CNC(C)(C)C(=O)O; Piperidide = C1CCN(*)CC1; Ac5c = NC1(C(=O)O)CCCC1; Aze = O=C(O)[C@@H]1CCN1; Sar = CNCC(=O)O
Classify: yes when IC50 is strictly less than 0.02 µM; no when IC50 is not.

Worked examples follow.
INSERT INTO assay_data (molecule, assigned_label) VALUES
  ('CC[C@H](C)[C@@H]1NC(=O)[C@H](CC(C)C)N(C)C(=O)C[C@@H](C(=O)N2CCCCC2)N(C)C(=O)[C@H](C2CCCCC2)N(C)C(=O)C2(CCCC2)NC(=O)CN(CCOCC(F)F)C(=O)[C@H](CCc2ccc(C(F)(F)F)c(Cl)c2)NC(=O)CN(C)C(=O)[C@H](CC2CCCCC2)N(C)C(=O)CN(C)C(=O)CN(C)C1=O [Compound 2036] ([NMeL]I[Sar][Sar][NMeCha][Sar][hPhe(3-Cl-4-CF3)][X81][Ac5c][NMeChg][NMeD]-Piperidide; lactam N-11 (inferred); C-terminus assumed)', 'yes'),
  ('CC[C@H](C)[C@@H]1NC(=O)[C@H](CC(C)C)N(C)C(=O)C[C@H]2CCCCN2C(=O)[C@H](CC(C)C)NC(=O)C(C)(C)N(C)C(=O)[C@H](CC(C)C)NC(=O)[C@H](CCc2ccc(C(F)(F)F)c(F)c2)NC(=O)CN(C)C(=O)[C@H](CC2CCCCC2)N(C)C(=O)CN(C)C(=O)CN(C)C1=O [Compound 1095] (cyclo(I[Sar][Sar][NMeCha][Sar][hPhe(3-F,4-CF3)]L[NMeAib]L[dβ3hPip][NMeL]))', 'no'),
  ('CC[C@H](C)[C@@H]1NC(=O)[C@H](CC(C)C)N(CC)C(=O)C[C@@H](C(=O)N2CCC2)N(C)C(=O)[C@H](C2CCCC2)N(C)C(=O)C2(CCCC2)NC(=O)[C@@H]2CCCN2C(=O)[C@H](CCc2ccc(C(F)(F)F)c(Cl)c2)NC(=O)CN(C)C(=O)[C@H](CC2CCCCC2)N(C)C(=O)[C@@H]2CCN2C(=O)[C@H](C)N(C)C1=O [Compound 1198] ([NEtLeu]I[NMeA][Aze][NMeCha][Sar][hPhe(3-Cl-4-CF3)]P[Ac5c][NMeGly(cPent)][NMeD]-{Azetidin(1-yl)}; lactam N-11)', 'yes'),
  ('CC[C@H](C)[C@@H]1NC(=O)[C@H](CC(C)C)N(C)C(=O)C[C@@H](C(=O)N2CCCCC2)N(C)C(=O)[C@H](CC)N(C)C(=O)C2(CCCC2)NC(=O)[C@@H]2CCCN2C(=O)[C@H](CCc2ccc(C(F)(F)F)c(Cl)c2)NC(=O)CN(C)C(=O)[C@H](CC2CCCCC2)N(C)C(=O)[C@@H]2CCN2C(=O)[C@H](C)N(C)C1=O [Compound 1678] ([NMeL]I[NMeA][Aze][NMeCha][Sar][hPhe(3-Cl-4-CF3)]P[Ac5c][NMeAbu][NMeD]-Piperidide; lactam N-11)', 'no'),
  ('CC[C@H](C)[C@@H]1NC(=O)[C@H](CC(C)C)N(C)C(=O)C[C@@H](C(=O)N2CCOCC2)N(C)C(=O)[C@H](C2CCCC2)N(C)C(=O)C2(CCCC2)NC(=O)[C@@H]2CCCN2C(=O)[C@H](CCc2ccc(C(F)(F)F)c(Cl)c2)NC(=O)CN(C)C(=O)[C@H](CC2CCCCC2)N(C)C(=O)[C@@H]2CCN2C(=O)[C@H](C)N(C)C1=O [Compound 926] ([NMeL]I[NMeA][Aze][NMeCha][Sar][hPhe(3-Cl-4-CF3)]P[Ac5c][NMeGly(cPent)][NMeD]-Morpholide; lactam N-11)', 'yes'),
  ('CC[C@H](C)[C@@H]1NC(=O)[C@H](C)N(C)C(=O)C[C@@H](C(=O)N2CCCCC2)N(C)C(=O)[C@H](C(C)C)N(C)C(=O)C2(CCCC2)NC(=O)[C@@H]2CCCN2C(=O)[C@H](CCc2cc(Cl)c(Cl)c(OC(C)C)c2)NC(=O)CN(C)C(=O)[C@H](CC2CCCCC2)N(C)C(=O)CN(C)C(=O)CN(C)C1=O [Compound 2079] ([NMeA]I[Sar][Sar][NMeCha][Sar][X8]P[Ac5c][NMeV][NMeD]-Piperidide; lactam N-11)', 'yes'),
  ('CC[C@H](C)[C@@H]1NC(=O)[C@H](CC(C)C)N(C)C(=O)C[C@@H](C(=O)N2CCCCC2)N(C)C(=O)[C@H](C2CCCCC2)N(C)C(=O)C2(CCCC2)NC(=O)[C@H](Cc2cncc(C)c2)N(C)C(=O)[C@H](CCc2ccc(C(F)(F)F)c(Cl)c2)NC(=O)CN(C)C(=O)[C@H](CC2CCCCC2)N(C)C(=O)CN(C)C(=O)CN(C)C1=O [Compound 1087] ([NMeL]I[Sar][Sar][NMeCha][Sar][hPhe(3-Cl-4-CF3)][X20][Ac5c][NMeChg][NMeD]-Piperidide; lactam N-11)', 'yes'),
  ('CC[C@H](C)[C@@H]1NC(=O)[C@H](CC(C)C)N(C)C(=O)C[C@@H](C(=O)N2CCCCC2)N(C)C(=O)[C@H](C(C)C)N(C)C(=O)C2(CCCC2)NC(=O)[C@@H]2CCCN2C(=O)[C@H](CCc2ccc(C(F)(F)F)c(Cl)c2)NC(=O)CN(C)C(=O)[C@H](C)N(C)C(=O)[C@@H]2CCN2C(=O)[C@H](C)N(C)C1=O [Compound 1674] ([NMeL]I[NMeA][Aze][NMeA][Sar][hPhe(3-Cl-4-CF3)]P[Ac5c][NMeV][NMeD]-Piperidide; lactam N-11)', 'no');

Problem: Threshold test, IC50 < 0.02 µM: CCCC[C@H]1C(=O)N[C@@H]([C@@H](C)CC)C(=O)N(C)[C@@H](C)C(=O)N2CC[C@H]2C(=O)N(C)[C@@H](CC2CCCCC2)C(=O)N(C)CC(=O)N[C@@H](CCc2ccc(C(F)(F)F)c(Cl)c2)C(=O)N2CCC[C@H]2C(=O)NC2(CCCC2)C(=O)N(C)[C@@H](C(C)C)C(=O)N[C@H](C)CC(=O)N1C [Compound 1568] (cyclo([Ac5c][NMeV][d(β3hA)][NMeNle]I[NMeA][Aze][NMeCha][Sar][hPhe(3-Cl-4-CF3)]P))
Solution: no
